Exercise: for every item that follows, state its recorded Internalization % TOP.
molecular target: human GLP1-R (Homo sapiens); assay: GLP1-R internalization assay in HEK293 cells; type: cell-based; details: normalized to maximum concentration of GLP-1 (100%)
Sequence (P43220 24-463): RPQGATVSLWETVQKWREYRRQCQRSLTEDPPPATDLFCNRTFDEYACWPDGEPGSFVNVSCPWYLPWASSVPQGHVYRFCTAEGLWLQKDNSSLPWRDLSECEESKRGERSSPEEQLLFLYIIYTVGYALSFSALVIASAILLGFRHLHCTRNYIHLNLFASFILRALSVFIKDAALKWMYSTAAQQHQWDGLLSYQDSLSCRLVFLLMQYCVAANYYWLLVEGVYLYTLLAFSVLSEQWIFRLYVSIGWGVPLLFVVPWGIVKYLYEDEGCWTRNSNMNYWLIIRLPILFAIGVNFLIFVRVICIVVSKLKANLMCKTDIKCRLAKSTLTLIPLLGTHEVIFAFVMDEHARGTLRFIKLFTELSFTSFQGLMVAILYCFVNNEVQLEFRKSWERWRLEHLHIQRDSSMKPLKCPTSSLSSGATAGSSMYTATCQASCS
Starred links: 1 amine or outer side, 2 acyl side, 3 side chain; linkers in the order of their positions; H or OH if unused. Non-standard residues stand in square brackets, D forms with d. Groups on a side chain read outwards from the residue. No end group written: not given here. *: point of attachment. C20 diacid = O=C(O)CCCCCCCCCCCCCCCCCCC(=O)*; C18 diacid = O=C(O)CCCCCCCCCCCCCCCCC(=O)*; γGlu = O=C(O)[C@H](CCC(=O)[*:2])N[*:1]; αMe4Pal = C[C@](N)(Cc1ccncc1)C(=O)O; 4Pal = N[C@@H](Cc1ccncc1)C(=O)O; αMeL = CC(C)C[C@](C)(N)C(=O)O; Orn = NCCC[C@H](N)C(=O)O; AEEA = NCCOCCOCC(=O)O; Aib = CC(C)(N)C(=O)O
One number for each entry, in %.

Use the examples below as a reference point.
Lookup: Quote Internalization % TOP reported for H-Y[Aib]QGTFTSDFS[Orn][αMeL]LDKK([AEEA-AEEA-γGlu-C18 diacid])AQ[Aib]AFIEYLLEGGPSSGAPPPGES-NH2 [Example 118] please.
Found: 46.4

Lookup: Answer with the recorded Internalization % TOP for the substance listed here: H-Y[Aib]QGTFTSDFS[Orn][αMeL]LDKK([AEEA-γGlu-C18 diacid])AQ[Aib]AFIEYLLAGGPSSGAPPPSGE-NH2 [Example 86]
Found: 52.5

Lookup: Please indicate Internalization % TOP recorded for Y[Aib]QGTFTSDFSK[αMeL]LDKK([AEEA-γGlu-C20 diacid])AQ[Aib]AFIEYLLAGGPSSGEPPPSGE-NH2 [Example 2]
Found: 66.8

Lookup: Note down Internalization % TOP recorded for H-Y[Aib]QGTFTSD[4Pal]S[Orn][αMeL]LDKK([AEEA-γGlu-C18 diacid])AQ[αMe4Pal]AFIEYLIE[Aib]GESSGAPPPSGS-NH2 [Example 223]
Found: 59.3

Lookup: Give Internalization % TOP for H-Y[Aib]QGTFTSDFS[Orn][αMeL]LDKK([AEEA-γGlu-C18 diacid])AQ[Aib]AFIEYLLE[dA]GPSS[Aib]APPPSGT-NH2 [Example 214]
Found: 41.7

Here's the next entry for you.
Lookup: Return Internalization % TOP for the following substance: H-Y[Aib]QGTFTSDFS[Orn][αMeL]LDKK([AEEA-γGlu-C18 diacid])AQ[Aib]AFIEWLLEGGSSSGAPPPSGE-NH2 [Example 172]
Found: 41.4

The reported measurements were obtained from patent US20240270821A1.
